Molecular target: NADPH oxidase 4 (Homo sapiens)
Assay: compounds shifting NOX4 Amplex Red fluorescence – cell-based, HEK293-NOX4, tetracycline-induced, NOX inhibitor project, primary screen (AID 1160)
Details: HEK293-NOX4, Amplex Red H2O2 fluorescence, 45 min; higher = more signal, called active from +8 up or from −8 down
recorded.metric: z-score
Numbers only.

molecule | system.name | z-score
CCCNC(=O)[C@@H]1c2ccccc2C(=O)N(Cc2ccc(OC(F)(F)F)cc2)[C@H]1c1ccc(CO)cc1 | NADPH oxidase 4 (Homo sapiens) | 0.184
O=C1C[C@]2(c3ccc([N+](=O)[O-])cc3)C(=O)N(C3CC3)c3cc(CO)ccc3[C@H]2N1CC12CC3CC(CC(C3)C1)C2 | NADPH oxidase 4 (Homo sapiens) | -1.64
O=C(O)[C@@H]1[C@@H]2C(=O)N(c3ccccc3)C(=O)[C@@H]2C[C@@H]1Sc1ccccc1 | NADPH oxidase 4 (Homo sapiens) | -0.541
O=C1NC(=O)C2C1C=CC(C(O)c1ccco1)N2Nc1ccc(Cl)cc1Cl (stereo not drawn) | NADPH oxidase 4 (Homo sapiens) | -5.58
CCCN1C(=O)[C@]2(Cc3ccccc31)N=C(c1ccc(OCCCO)cc1)O[C@@H]2c1ccccc1 | NADPH oxidase 4 (Homo sapiens) | -0.843

Each molecule below has a recorded value; state its z-score.
1. O=C1N(CCS(=O)(=O)c2ccccc2)c2ccccc2[C@H]2OC(c3ccc(OCCCO)cc3)=N[C@@]12Cc1ccccc1
2. COCCOC(=O)N1C(=O)[C@@]2(c3cc(C#CCCO)ccc31)[C@H](c1ccc(OCCO)cc1)N1[C@H](c3ccccc3)[C@H](c3ccccc3)OC(=O)[C@H]1[C@@H]2C(=O)Nc1nc2ccccc2s1
3. [N-]=[N+]=NCc1ccccc1[C@@H]1OC(c2ccc(OCCCO)cc2)=N[C@]1(CCS(=O)(=O)c1ccccc1)C(=O)O

RESULT:
[1.07, 1.26, 1.33]

###

Test: blockers of DNA damage checkpoint Chk1 activation – imaging, HeLa, hydroxyurea, phospho-Chk1 nuclear intensity, primary screen (AID 1187); further: test concentration not given here
Details: hydroxyurea-induced phospho-Chk1 immunofluorescence imaging, higher = more signal
Please mark yes (1) if the recorded z-score is equal to or greater than 0.4, and no (0) if it falls below.

These recorded examples may help you get a feel for the data.
compound | label
CC(C)=C1C(=O)C(c2ccccc2)=C2CN3C(=O)N(CCc4ccccc4)C(=O)[C@]3(Cc3ccc(C(F)(F)F)cc3)[C@H]21 | yes (1)
NC(=O)[C@@]1(Cc2ccccc2)COC(c2ccc(OCCCO)cc2)=N1 | no (0)
CCOC(=O)C1=C[C@@H](c2ccccc2)N(S(=O)(=O)c2ccc(C)cc2)[C@H]1c1ccc(OC)cc1 | no (0)
COc1ccc(CCNC(=O)[C@@]2(Sc3ccc(C)cc3)CC(=O)N(Cc3ccccc3C(F)(F)F)[C@@H]2c2ccc(CO)cc2I)cc1 | yes (1)
COc1cccc(C)c1NC(=O)O[C@H]1[C@H](OC(=O)Nc2ccc3c(c2)OCO3)[C@@H](OC(=O)Nc2ccc3c(c2)OCO3)[C@@H](OC)O[C@@H]1CO | no (0)

QUERY: In plain terms: is recorded z-score at least 0.4 for CC(C)c1ccc(NN2C(C(O)c3ccc(F)cc3)C=CC3C(=O)N(c4ccccc4)C(=O)C32)cc1 (stereo not drawn) ?
RESULT: no (0)

QUERY: Check if z-score >= 0.4 (inclusive). Item: CC1CC/C=C\[C@H]2OC34C=CCN(c5ccc(Cl)cc5)C(=O)[C@H]3N(C(C)CO)C(=O)[C@]4(C)C2C(=O)O1 (stereo partly drawn)
RESULT: no (0)

QUERY: Can Cc1ccccc1C(O)C1C=CC2C(=O)NC(=O)C2N1Nc1ccccn1 (stereo not drawn) be said to have z-score at or above 0.4?
RESULT: no (0)

###

Kindly state composite z-score for each of the entries shown.
Test system: Fibrinogen (Alexa647-labelled)
Experiment: Alexa647-fibrinogen binding to printed small molecules – biochemical, small-molecule microarray, 635/667 nm fluorescence, artefact control for SMM control-protein annotation, profiling panel (AID 1131);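 further: z-score merges 667 nm fluorescence with per-spot signal-to-noise over triplicate slides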
Details: fibrinogen-A647 binding fluorescence, higher = more signal
Give bare numbers.

compound | meas.value
CC(C)C[C@@H]1NC(=O)[C@@H]2C[C@H](C(=O)NCCCCCCN)[C@H](c3cccc(OCCO)c3)N2C1=O | 0.662

Please give composite z-score, item by item, for the list that follows.
1. CCOC(=O)C[C@H]1[C@H](OC(=O)c2cc3ccccc3oc2=O)[C@@H](NC(=O)c2ccc3ccccc3n2)c2cc(OCCCO)ccc2N1C(=O)Cc1ccc(OC)cc1
2. C=CCN1C(=O)[C@]2(CCS(=O)(=O)c3ccccc3)N=C(c3ccc(OCCCO)cc3)O[C@@H]2c2ccccc21
3. CCOC(=O)C[C@H]1[C@H](OC(=O)c2ccc(C(=O)c3ccccc3)cc2)[C@@H](NC(=O)c2ccc3ccccc3n2)c2cc(OCCCO)ccc2N1C(=O)Cc1ccc(OC)cc1

RESULT:
0.953
0.891
0.692

###

Molecular target: Concanavalin-A (Canavalia ensiformis) (UniProt P02866)
Sequence (P02866 whole entry, looked up): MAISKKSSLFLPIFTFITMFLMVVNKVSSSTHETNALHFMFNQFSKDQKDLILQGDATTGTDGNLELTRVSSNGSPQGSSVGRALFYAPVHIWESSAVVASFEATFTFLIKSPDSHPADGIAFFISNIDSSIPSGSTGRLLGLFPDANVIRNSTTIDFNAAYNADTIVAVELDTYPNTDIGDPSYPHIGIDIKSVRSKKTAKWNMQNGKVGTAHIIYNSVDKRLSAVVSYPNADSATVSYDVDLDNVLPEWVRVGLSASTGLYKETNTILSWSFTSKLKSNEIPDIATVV
Assay: compounds binding concanavalin A lectin – biochemical, small-molecule microarray, Alexa647 label, 635 nm, artefact control for SMM control protein annotation, primary screen (AID 1127);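 further: z combines 667 nm emission intensity with signal-to-noise across three replicate slides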
Conditions: ConA-A647 binding fluorescence, higher = more signal
Label Yes for high-side composite z-score (at or above 0.6) and No for low-side composite z-score (below it).

Example cases with answers are listed next.
compound | label
CCCCC[C@H]1OC[C@@]23C=C(Br)[C@@H](CC12)[C@@]1(CO1)C3=O (stereo partly specified) | No
CCCCC(O)C1C=CC2C(=O)N(C)C(=O)C2N1N(c1ccccc1)c1ccccc1 (stereo unspecified) | Yes
CCCC[C@@H](O)C1=C(COC)C[C@H]2C(=O)N(Cc3ccccc3)C(=O)[C@H]2[C@H]1CO | No
CC(=O)N1CC2(CC2)CC1c1ccccc1 (stereo unspecified) | No
NCCCCCNC(=O)[C@@H]1C[C@@H]2C(=O)N[C@@H](CCCCN)C(=O)N2[C@@H]1c1ccc(O)cc1 | Yes
CCOC(=O)C[C@H]1[C@H](OC(=O)c2cc3ccccc3oc2=O)[C@@H](NC(=O)CC(C)C)c2cc(OCCCO)ccc2N1C(=O)c1ccc2ccccc2n1 | Yes
COc1ccc([Si](C)(C)[C@@H]2[C@@H](CC(=O)N3Cc4ccccc4C[C@H]3CO)O[C@]3(C(=O)N(Cc4ccc(N5C(=O)c6cccc7cccc5c67)cc4)c4ccccc43)[C@H]2C)cc1 | Yes
CCOC(=O)C1=CC[C@@H](c2ccccc2F)N(S(=O)(=O)c2ccc(C)cc2)[C@H]1c1ccccc1 | Yes
CCOC(=O)C[C@H]1[C@H](OC(=O)c2ccc(C(=O)c3ccccc3)cc2)[C@@H](NC(=O)c2ccc3ccccc3n2)c2cc(OCCCO)ccc2N1C(=O)Cc1ccc(OC)cc1 | Yes
COCCOC(=O)N1C(=O)[C@@]2(c3ccccc31)[C@H](c1ccc(O)cc1)N1[C@H](c3ccccc3)[C@H](c3ccccc3)OC(=O)[C@H]1[C@@H]2C(=O)N1CCN(c2ncccn2)CC1 | Yes

QUERY: # bool: composite z-score of Cc1ccccc1C(O)C1C=CC2C(=O)NC(=O)C2N1Nc1ccccn1 (stereo unspecified) >= 0.6
RESULT: No

QUERY: // inclusive: composite z-score at least 0.6? input: CCOC(=O)C1=C[C@@H](C(C)(C)C)N(S(=O)(=O)c2ccc(C)cc2)[C@H]1c1cccc2ccccc12
RESULT: Yes

QUERY: Reported composite z-score reaches at least 0.6 for C=CCOC(=O)[C@@]1(Cc2ccccc2)C[C@H]2CO[C@H](c3ccc(OC)cc3)N2C1=O ?
RESULT: No

QUERY: # bool: composite z-score of COc1ccc(CCNC(=O)[C@@]2(Sc3ccc(C)cc3)CC(=O)N(Cc3ccccc3C(F)(F)F)[C@@H]2c2ccc(CO)cc2I)cc1 >= 0.6
RESULT: No

QUERY: Assess whether reported composite z-score for O=C1NC(=O)C2C1C=CC(C(O)c1ccco1)N2Nc1ccc(Cl)cc1Cl (stereo unspecified) sits at 0.6 or higher.
RESULT: No

QUERY: Decide: is the reported value of composite z-score for C=CC[C@@H](OC(=O)Nc1ccc(OC)cc1)c1ccc(O)c(F)c1 equal to or greater than 0.6?
RESULT: No

###

Molecular target: NADPH oxidase 2 (Homo sapiens)
Test: compounds shifting NOX2 Amplex Red fluorescence – cell-based, HEK293-NOX2, PMA-stimulated, NOX inhibitor project, primary screen (AID 1159); further: test concentration not given here
Conditions: 45 min, higher = more signal, called active from +8 up or from −8 down
Calls of active or inactive are those of the source.
recorded.metric: z-score

Here are 3 molecules together with their reported answers.
molecule | system.name | meas.value
CC(=O)NCCCC[C@@H]1NC(=O)[C@@H]2C[C@H](C(=O)NCCCCCN)[C@H](c3ccc(O)cc3)N2C1=O | NADPH oxidase 2 (Homo sapiens) | 1.93 (inactive)
O=C(O)[C@@H]1[C@@H]2C(=O)N(c3ccccc3)C(=O)[C@@H]2C[C@@H]1Sc1ccccc1 | NADPH oxidase 2 (Homo sapiens) | 0.312 (inactive)
COc1cc2c(cc1O)C(c1cccs1)N(Cc1cc3c(cc1Br)OCO3)CC2 (centres undefined) | NADPH oxidase 2 (Homo sapiens) | -4.19 (inactive)

Attention now turns to another entry.
QUERY: Write down the reported z-score of [N-]=[N+]=Nc1ccccc1C[C@]1(C(=O)NCCN2CCOCC2)COC(c2ccc(OCCCO)cc2)=N1 , test system: NADPH oxidase 2 (Homo sapiens).
RESULT: 2.89 (inactive)
